Give measured apparent KD of MS2 coat protein for each item. Keep answers brief.
Tested on: MS2 coat protein
Assay: apparent KD of MS2 coat protein; designed switch direction (-1 OFF switch, 1 ON switch): -1; higher = weaker reporter binding
Details: input ligand: none
One number for each entry, in nM.

[[record]]
sequence_entry = "AGCCCUGCAGGAUAUGCCCGGGAUAACAUGAGGAUCACCCAUGUGACCGAUUGUUAUCCUGCAGAAGGGCUAGGGA [JL-EX5-4.11 ViennaUCT mod] (Eterna round: R97, puzzle: Exclusion 5)"
measurement_name = "apparent KD of MS2 coat protein"
data_value = 49

[[record]]
sequence_entry = "UUUGAAAAUGUAGGAUAUGGAAUAGGUAAGUAGCCAGAAGGACAUGAGGAUCACCCAUGUAAGAACAUAGGGAAAGAUAUGUUU [No clue what I'm doing] (Eterna round: R96, puzzle: Exclusion NG 1)"
measurement_name = "apparent KD of MS2 coat protein"
data_value = 44.7

[[record]]
sequence_entry = "ACAUGUCAUCGAGGAUAUUGGACACAUGAGGAUCACCCAUGUACCCGGAGGCUUUACUAUGAGUUCGAGAAGGCGAUGUACAUG [Ex NG2 #73] (Eterna round: R96, puzzle: Exclusion NG 2)"
measurement_name = "apparent KD of MS2 coat protein"
data_value = 54.6

[[record]]
sequence_entry = "AUAAGGCUAGGAUAUGCAUGUGGCACAGCUCAGAAAAUAAGACAUGAGGAUCACCCAUGUAGAAGGAGCAUGCC [EX2 A.30] (Eterna round: R97, puzzle: Exclusion 2)"
measurement_name = "apparent KD of MS2 coat protein"
data_value = 16.2

[[record]]
sequence_entry = "AGGUGUAGGUAAGGAUAUAUCUAAAACCACAUGAGGAUCACCCAUGUAGCGGGUAUCUUCGUGAGAUAGAAGGUGCACGCCGAA [Atbiasori] (Eterna round: R96, puzzle: Exclusion NG 2)"
measurement_name = "apparent KD of MS2 coat protein"
data_value = 308

[[record]]
sequence_entry = "GUGGCACAUGAGGAUCACCCAUGUCAGGAUAUCGCGUGGUUUUUUUCGGCCGCGCGCGCGAGAAGGGACGUCUU (Eterna round: R96, puzzle: Exclusion 1)"
measurement_name = "apparent KD of MS2 coat protein"
data_value = 30.9

[[record]]
sequence_entry = "UUGACGGCAGGAUAUACAUGAGGAUCACCCAUGUAAAUUUUUCGUUUAACUUGAAUGUGUAGAAGGGCCAAACC [Ex3 #77] (Eterna round: R97, puzzle: Exclusion 3)"
measurement_name = "apparent KD of MS2 coat protein"
data_value = 20.4

[[record]]
sequence_entry = "GCGACAGCGGUUAGGAUAUAUGUUAGGACGUAGAUAUAGAAGGAACAUGAGGAUCACCCAUGUUUAAAAUGGGA [Eternabot (L1) Solution 71] (Eterna round: R97, puzzle: Brourd's mod of Exclusion 4)"
measurement_name = "apparent KD of MS2 coat protein"
data_value = 71.9


Take each entry in turn and give its apparent KD of MS2 coat protein.
1. AGGAUACGAGGAUAUACGCGGAGACCUCAGGGUCUACAAACACAUGAGGAUCACCCAUGUAGAAGGCGUACCAG [Eternabot (Original) Solution 11] (Eterna round: R97, puzzle: Exclusion 2)
2. AAUUAACAUGUAGGAUAUCUGCACGUUUAGUGCAGAGAAGGACAUGAGGAUCACCCAUGUAUAGCGACUUCGGUCGCAAUAAUU [ENG1/2-B2] (Eterna round: R96, puzzle: Exclusion NG 1)
3. CAUCCUAUUGUAGGAUAUCCGCUUAUUAUAUUGGGAGAAGGACAUGAGGAUCACCCAUGUGUGUAAUCAGAUGUGCGUGUUAAC [an other try] (Eterna round: R96, puzzle: Exclusion NG 1)
4. GAUUUACAUGAGGAUCACCCAUGUGAGGAUAUAUUGUUAUUUUUAAUAUUUUUUAGUGGUAGAAGGCGCGUGAU [JR_Exc1_Sub016] (Eterna round: R97, puzzle: Exclusion 1)

Ans:
1. 42
2. 131
3. 82.2
4. 26.9

====

Test system: MS2 coat protein
Experiment: apparent KD of MS2 coat protein; designed switch direction (-1 OFF switch, 1 ON switch): -1; higher = weaker reporter binding
Conditions: input ligand: microRNA oligo, concentration not stated
Rule: Met for apparent KD of MS2 coat protein not less than 50 nM, Not met for anything less.

[[record]]
sequence_entry = "CGUCUGUCGGAAGGAUAUGUAGGGUGUCUUUUCCUCAGUACGAAGUACAUGAGGAUCACCCAUGUACAGAAGGUCCACAAUUAA [Essosoedso] (Eterna round: R96, puzzle: Exclusion NG 2)"
tested_on = "MS2 coat protein"
class_label = "Met"

[[record]]
sequence_entry = "ACAUGAGGAUCACCCAUGUACAGGGUUUAGUUUCAUCGUUUGAAGGAUAUACACCGUUAGUUGUCGUAGAAGGUCACAGAUUGG [JR_ExcNG3_Sub009] (Eterna round: R96, puzzle: Exclusion NG 3)"
tested_on = "MS2 coat protein"
class_label = "Met"

[[record]]
sequence_entry = "GUCGUGCGGCUUUGCUGUGCGGGUACAUGAGGAUCACCCAUGUAGGAUAUGGUGCGCUUUGCGUGCCAGAAGGGCGUGCGUUGG [salish99_ExNG3_r04_010] (Eterna round: R96, puzzle: Exclusion NG 3)"
tested_on = "MS2 coat protein"
class_label = "Not met"


Now consider a different sequence.
Q: Could you tell me if the measured apparent KD of MS2 coat protein of UUUAUGUCAGGAUAUGAGUAGUAGAACAAUAGUACUACUACUCAGAAGGGACAUGAGGAUCACCCAUGUGCCUC [Fiskers Ex 4 Super stable 44 mod 22] (Eterna round: R96, puzzle: Exclusion 4) reaches 50 nM or more?
Ans: Not met

====

System: K4 kissing-loop RNA reporter
Assay: apparent KD of K4 kissing-loop reporter; higher = weaker reporter binding
Details: Eterna round: R107; input ligand: none
Rule: met for apparent KD of K4 kissing-loop reporter not less than 200 nM, not met for anything less.

[[record]]
sequence_entry = "UUUUUUAAUGGAAGGAGCGCGUGGGCGCAGUGAUGUUGCGCCCGACAUCACUUCAACUUAACGCAGGUAGGUCGCCAUUAUUUUU [Arginine B (Excl) V6]"
class_label = "not met"

[[record]]
sequence_entry = "GCUAUGGUAGGAAGGAGCGCUUGUUCGGUCAUAUGAGUGAUGUUCGAGACUGAGCAUUUAUAGCAGGUAGGUCGCCUACUAUAGC [Arginine B K4 10]"
class_label = "not met"

[[record]]
sequence_entry = "GCUAUGGUAGGAAGGAGCGCUUAUUCAUUAAUAAGAGUGAUGUUCGAUAAUGAAUAUUUAUAGCAGGUAGGUCGCCUACUAUAGC [Arginine B K4 2]"
class_label = "met"

[[record]]
sequence_entry = "GCCGUACGCAUGGAUACCAGCAAUUAUGCUCGUGAUCUAGUGAUGUUAGUGGCGAAAGUUUGCCCUUGGCAGCCAUGCGUACGGC"
class_label = "met"

[[record]]
sequence_entry = "CAACCGUAACACGAUACCAGCCUAGAAGCCAGUGAUGUUGGCCUUUUUUCGGAAAUGAAAGGCCCUUGGCAGCGUGGAUAAAAUG [Lelabiised]"
class_label = "met"


Now consider a different sequence.
Q: Could you tell me if the measured apparent KD of K4 kissing-loop reporter of ACGGGCGGCUGAAGGAGCGGGCGGGCCCGAGUGAUGUUCGGGUGGGCCGUGAGGCCCGGAGCCCAGGUAGGUCGCGGUUCCGUCC [#2 Same State - Arginine B Attempt #21 (HarryS)] reaches 200 nM or more?
Ans: not met

====

System: K4 kissing-loop RNA reporter;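 further: bound reporter read as fluorescence of individual clusters on recovered sequencing chips by microscopy, with normalized cluster intensities fitted with a binding model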
Experiment: apparent KD of K4 kissing-loop reporter; higher = weaker reporter binding
Settings: Eterna round: R107; input ligand: arginine 13.2 mM
Give measured apparent KD of K4 kissing-loop reporter for each item. Keep answers brief.
Note: a bare number is incomplete; add the unit.

[[record]]
sequence_entry = "AAACGCUUGAAUAACAAGCGAAUAAAUUCGCGAGGACCGGUACGGCCGCCACUCGCUAACUGCGAGUGAUGUUCGAUAAUAAAAU [Mat - Mod of OpenEnded 3 - D14]"
measurement_name = "apparent KD of K4 kissing-loop reporter"
data_value = "0.0919 µM"

[[record]]
sequence_entry = "UAAGAGGACCACUGCAAGAGUCCUCGAAUACGAGGACCGGUACGGCCGCCACUCGAUAACUUGCAGUGAUGUUGCAAGUAAGAAU [(T)''-(K)'-(T)'-(T1)-(T2)-(K1)-(K2)_Design1]"
measurement_name = "apparent KD of K4 kissing-loop reporter"
data_value = "0.129 µM"


Take each entry in turn and give its apparent KD of K4 kissing-loop reporter.
1. AAUUUCGGAUACAUCAUAGUUUUAAUUCGGCGAGGACCGGUACGGCCGCCACUCGGUAUAGACGCGUCCAGUGAUGUUGGCGCUU [theeternabot_sameState_KL_Trp_A_45]
2. GUUUGGCGGGCGGCCGCCACUCGGACGAGUCGCAGUGAUGUUGUGGUUUGCCAGUCGUCUUCAUCGAGGACCGGGUUUGUCGGGC [Exclusion Tryptophan B GF 19]
3. GCAGGACGAGGAGGAGGAUGAAUUACUGAAGGAGCGCAUAUGGUUGCAGGUAGGUCGCGGUAAACAAGUAUAGUGAUGUUAUAUC [SSArgA.P]

Ans:
0.193 µM
0.38 µM
0.586 µM
